selectivity ratio: recorded values
test_method_notes: Selectivity index, ratio of IC50 for human MRC5 SV2 cells to IC50 for chloroquine-sensitive Plasmodium falciparum Ghana
Type: toxicity, cell-based
study_conditions: read-out: Ratio IC50
measurement_label: selectivity ratio

                                   compound  measurement_label  inequality_operator  test_value
0  CCN(CC)CCCC(C)Nc1ccc2cc3c4ccccc4nc-3n(C)c2c1 (stereo not given)  selectivity ratio                    =        1070
1  Cn1c2nc3ccccc3c-2c(N2CCN(CCO)CC2)c2cc(Cl)ccc21  selectivity ratio                    =         0.4
2       Cn1c2nc3ccccc3c-2c(Cl)c2c(Cl)cccc21  selectivity ratio                    =         0.9
3  CCN(CC)CCCC(C)Nc1c2c3ccccc3nc-2n(C)c2ccc(Cl)cc12 (stereo not given)  selectivity ratio                    =         674
4  CCN(CC)CCCC(C)Nc1c2c(Cl)cccc2nc2[nH]c3ccccc3c12 (stereo not given)  selectivity ratio                    =          17
5  CCN(CC)CCCC(C)Nc1ccc2c(c1)cc1c3ccccc3nc-1n2C (stereo not given)  selectivity ratio                    =         240
6           Cn1c2nc3ccccc3c-2cc2ccc(Cl)cc21  selectivity ratio                    =         0.5
7  Clc1ccc2nc3[nH]c4ccccc4c3c(NCCN3CCOCC3)c2c1  selectivity ratio                    >           2
8           Cn1c2nc3ccccc3c-2cc2cc(Br)ccc21  selectivity ratio                    >           5
9       Cn1c2nc3ccccc3c-2c(Cl)c2ccc(Cl)cc21  selectivity ratio                    <         0.4

---

test_method_notes: Selectivity index, ratio of IC50 for human MRC5 SV2 cells to IC50 for chloroquine-sensitive Plasmodium falciparum Ghana
Assay type: toxicity, cell-based
study_conditions: read-out: Ratio IC50
selectivity ratio: recorded values
measurement_label: selectivity ratio

>>> print(df.to_string())
                                   molecule  measurement_label  inequality_operator  test_value
0  CCN(CC)CCCC(C)Nc1c2c3ccccc3nc-2n(C)c2cc(Cl)ccc12 (stereo not given)  selectivity ratio                    =         108
1  CN1CCN(c2c3c4ccccc4nc-3n(C)c3ccc(Cl)cc23)CC1  selectivity ratio                    =         0.5
2  CCN(CC)CCCC(C)Nc1ccc2nc3n(C)c4ccccc4cc-3c2c1 (stereo not given)  selectivity ratio                    =         114
3  Clc1ccc2nc3[nH]c4ccccc4c3c(NCCN3CCCC3)c2c1  selectivity ratio                    >          21
4  CCN(CC)CCCC(C)Nc1c2c3ccccc3nc-2n(C)c2cccc(Cl)c12 (stereo not given)  selectivity ratio                    =          60

---

target: Histidine-rich protein PFHRP-II (Plasmodium falciparum)
Sequence (P05227 whole entry): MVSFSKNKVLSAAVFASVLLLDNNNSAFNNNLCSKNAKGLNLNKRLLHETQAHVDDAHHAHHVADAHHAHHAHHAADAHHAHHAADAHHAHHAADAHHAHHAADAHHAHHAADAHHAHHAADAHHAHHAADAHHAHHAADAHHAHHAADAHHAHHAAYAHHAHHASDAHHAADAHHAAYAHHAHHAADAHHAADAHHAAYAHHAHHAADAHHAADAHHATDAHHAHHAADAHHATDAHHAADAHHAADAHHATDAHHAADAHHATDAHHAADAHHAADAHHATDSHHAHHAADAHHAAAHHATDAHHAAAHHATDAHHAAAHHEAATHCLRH
test_method_notes: Inhibition of beta-hematin formation after 18 hrs by microtiter plate assay
Type: functional
Class boundaries, taken from values of IC50, are as follows: Low = under 2 milliequivalent, Medium = from 2 milliequivalent up to 4 milliequivalent, High = 4 milliequivalent and over

In [3]: df
Out[3]:
                                    molecule                                    target  qualitative_label
 0  CCN(CC)CCCC(C)Nc1c2c(Cl)cccc2nc2[nH]c3ccccc3c12 (stereo not drawn)  Histidine-rich protein PFHRP-II (Plasmodium falciparum)             Medium
 1  CCN(CC)CCCC(C)Nc1c2ccc(Cl)cc2nc2[nH]c3ccccc3c12 (stereo not drawn)  Histidine-rich protein PFHRP-II (Plasmodium falciparum)               High
 2  CCN(CC)CCCC(C)Nc1c2c3ccccc3nc-2n(C)c2cc(Cl)ccc12 (stereo not drawn)  Histidine-rich protein PFHRP-II (Plasmodium falciparum)               High
 3  CCN(CC)CCCC(C)Nc1ccc2c3cc4ccccc4n(C)c-3nc2c1 (stereo not drawn)  Histidine-rich protein PFHRP-II (Plasmodium falciparum)               High
 4  CCN(CC)CCCC(C)Nc1c2cc(Cl)ccc2nc2[nH]c3ccccc3c12 (stereo not drawn)  Histidine-rich protein PFHRP-II (Plasmodium falciparum)             Medium
 5           Cn1c2nc3cc(Cl)ccc3c-2cc2ccccc21  Histidine-rich protein PFHRP-II (Plasmodium falciparum)                Low
 6           Cn1c2nc3ccccc3c-2cc2cc(Br)ccc21  Histidine-rich protein PFHRP-II (Plasmodium falciparum)                Low
 7  CCN(CC)CCCC(C)Nc1ccc2c(c1)cc1c3ccccc3nc-1n2C (stereo not drawn)  Histidine-rich protein PFHRP-II (Plasmodium falciparum)                Low
 8  CCN1CCCC1CNc1c2cc(Cl)ccc2nc2[nH]c3ccccc3c12 (stereo not drawn)  Histidine-rich protein PFHRP-II (Plasmodium falciparum)                Low
 9           Cn1c2nc3ccc(Cl)cc3c-2cc2ccccc21  Histidine-rich protein PFHRP-II (Plasmodium falciparum)                Low
10  Clc1ccc2nc3[nH]c4ccccc4c3c(N3CCC(N4CCCCC4)CC3)c2c1  Histidine-rich protein PFHRP-II (Plasmodium falciparum)             Medium
11  CN(C)CCNc1c2cc(Cl)ccc2nc2[nH]c3ccccc3c12  Histidine-rich protein PFHRP-II (Plasmodium falciparum)             Medium

---

selectivity ratio: recorded values
test_method_notes: Selectivity index, ratio of IC50 for human MRC5 SV2 cells to IC50 for chloroquine-sensitive Plasmodium falciparum Ghana
Format: toxicity, cell-based
study_conditions: read-out: Ratio IC50
measurement_label: selectivity ratio

In [3]: df
Out[3]:
                                   molecule  inequality_operator  test_value
0  CCN1CCCC1CNc1c2c3ccccc3nc-2n(C)c2ccc(Cl)cc12 (stereo not given)                    >           2
1  CN(C)CCNc1c2cc(Cl)ccc2nc2[nH]c3ccccc3c12                    >         160
2  Cn1c2nc3ccccc3c-2c(N2CCC(N3CCCCC3)CC2)c2cc(Cl)ccc21                    =           2
3  Cn1c2nc3ccccc3c-2cc2ccccc21 [NEOCRYPTOLEPINE]                    =         0.4
4  CCN(CC)CCCC(C)Nc1c2cc(Cl)ccc2nc2[nH]c3ccccc3c12 (stereo not given)                    >         533

---

test_method_notes: Cytotoxicity against human MRC5 SV2 cells after 72 hrs by resazurin-based fluorometric assay
Type: cell-based
study_conditions: MRC5, 72 h
pIC50: −log10 of the molar value.
Decision: pIC50 compared against 5; not below it gives met, below it gives not met.

In [3]: df
Out[3]:
                                    compound  qualitative_label
 0           Cn1c2nc3ccccc3c-2cc2cc(Br)ccc21            not met
 1  Clc1ccc2nc3[nH]c4ccccc4c3c(NCCN3CCOCC3)c2c1            not met
 2      Clc1ccc2c(Cl)c3c(nc2c1)[nH]c1ccccc13            not met
 3  CCN(CC)CCCC(C)Nc1c2c3ccccc3nc-2n(C)c2cccc(Cl)c12 (stereo not drawn)            not met
 4  CCN(CC)CCCC(C)Nc1ccc2cc3c4ccccc4nc-3n(C)c2c1 (stereo not drawn)            not met
 5  CCN(CC)CCCC(C)Nc1c2c3ccccc3nc-2n(C)c2cc(Cl)ccc12 (stereo not drawn)            not met
 6  CN(C)CCNc1c2cc(Cl)ccc2nc2[nH]c3ccccc3c12            not met
 7       Cn1c2nc3ccccc3c-2c(Cl)c2ccc(Cl)cc21            not met
 8  CCN1CCCC1CNc1c2c3ccccc3nc-2n(C)c2ccc(Cl)cc12 (stereo not drawn)                met
 9  CCN(CC)CCCC(C)Nc1c2ccc(Cl)cc2nc2[nH]c3ccccc3c12 (stereo not drawn)            not met
10  CCN(CC)CCCC(C)Nc1c2cc(Cl)ccc2nc2[nH]c3ccccc3c12 (stereo not drawn)            not met
11           Cn1c2nc3ccccc3c-2cc2ccc(Cl)cc21            not met
12           Cn1c2nc3ccc(Cl)cc3c-2cc2ccccc21            not met
13  Cn1c2nc3ccccc3c-2c(NCCN2CCCC2)c2cc(Cl)ccc21                met
14           Cn1c2nc3ccccc3c-2cc2cc(Cl)ccc21            not met
15  CN(C)CCNc1c2c3ccccc3nc-2n(C)c2ccc(Cl)cc12                met
16  Cn1c2nc3ccccc3c-2c(N2CCC(N3CCCCC3)CC2)c2cc(Cl)ccc21                met
17  CCN(CC)CCCC(C)Nc1c2c3ccccc3nc-2n(C)c2ccc(Cl)cc12 (stereo not drawn)            not met
18  OCCN1CCN(c2c3cc(Cl)ccc3nc3[nH]c4ccccc4c23)CC1                met
19        Clc1ccc2nc3[nH]c4ccccc4c3c(Cl)c2c1            not met
20  CCN(CC)CCCC(C)Nc1ccc2c3cc4ccccc4n(C)c-3nc2c1 (stereo not drawn)            not met
21  CCN1CCCC1CNc1c2cc(Cl)ccc2nc2[nH]c3ccccc3c12 (stereo not drawn)            not met
22  Clc1ccc2nc3[nH]c4ccccc4c3c(NCCN3CCCC3)c2c1            not met
23       Cn1c2nc3ccccc3c-2c(Cl)c2c(Cl)cccc21            not met
24  CN1CCN(c2c3cc(Cl)ccc3nc3[nH]c4ccccc4c23)CC1                met
25  Cn1c2nc3ccccc3c-2c(Cl)c2ccccc21 [11-CHLORONEOCRYPTOLEPINE]                met
26  CN1CCN(c2c3c4ccccc4nc-3n(C)c3ccc(Cl)cc23)CC1                met
27       Cn1c2nc3ccccc3c-2c(Cl)c2cc(Cl)ccc21            not met
28  CCN(CC)CCCC(C)Nc1c2c(Cl)cccc2nc2[nH]c3ccccc3c12 (stereo not drawn)            not met
29  Clc1ccc2nc3[nH]c4ccccc4c3c(N3CCC(N4CCCCC4)CC3)c2c1                met
30  CCN(CC)CCCC(C)Nc1c2c3ccccc3nc-2n(C)c2ccccc12 (stereo not drawn)            not met
31           Cn1c2nc3cc(Cl)ccc3c-2cc2ccccc21            not met
32  Cn1c2nc3ccccc3c-2c(NCCN2CCOCC2)c2cc(Cl)ccc21                met
33        Clc1cccc2nc3[nH]c4ccccc4c3c(Cl)c12            not met
34  CCN(CC)CCCC(C)Nc1ccc2nc3n(C)c4ccccc4cc-3c2c1 (stereo not drawn)            not met
35  Cn1c2nc3ccccc3c-2c(N2CCN(CCO)CC2)c2cc(Cl)ccc21                met
